Target: HIV Env of isolate HIV-001428-2.42 (clade C) (HIV)
Assay: cell-based or functional assay
MEASURE NAME: IC50 (µg/ml) with constrains (µg/mL)
Write down the numeric answer in µg/mL and omit the unit.

Form field: reported IC50 (µg/ml) with constrains of PGDM1400 (antibody, V domains shown) VH: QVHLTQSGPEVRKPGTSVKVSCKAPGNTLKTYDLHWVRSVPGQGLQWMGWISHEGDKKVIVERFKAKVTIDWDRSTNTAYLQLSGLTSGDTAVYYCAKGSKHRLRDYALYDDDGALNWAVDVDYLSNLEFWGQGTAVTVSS VL: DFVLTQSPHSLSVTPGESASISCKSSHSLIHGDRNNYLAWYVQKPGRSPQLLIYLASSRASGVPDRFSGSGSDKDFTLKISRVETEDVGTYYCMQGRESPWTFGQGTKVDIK 0.014

Where these numbers come from: patent US20230134571A1
